tested on: HEK-293T; assay: Multiplex assay against HEK293T; assay type: toxicity, cell-based; conditions: human, 24 h, 1 µM, compound concentration 1 uM, replicate 1
Result Type: Population Pyknosed Nuclei (%)
Answer format: numeric, % implied, no suffix.

-- ask Quote Population Pyknosed Nuclei (%) reported for CC(C)c1cc(Nc2nc(N3CCC[C@H](N)C3)ncc2C(N)=O)cc(C(C)C)n1 please.
-- reply 63

-- ask Quote Population Pyknosed Nuclei (%) reported for Cc1c(Nc2ccc(S(=O)(=O)N3CCN(C)CC3)cc2F)nc2ccc(Nc3cnn(C4CC4)c3)cn2c1=O please.
-- reply 23

-- ask Quote Population Pyknosed Nuclei (%) reported for Cc1c(P(=S)(c2ccccc2)c2ccccc2)n2ccccc2[n+]1C/C=C/c1ccccc1.[Br-] please.
-- reply 61

-- ask Quote Population Pyknosed Nuclei (%) reported for CN(c1cc(C(F)(F)F)nc(OCCC(=O)O)n1)c1cccc2c1CCC2 please.
-- reply 51

-- ask Quote Population Pyknosed Nuclei (%) reported for CN1C(=O)[C@@H](NC(=O)c2cc3ccccc3[nH]2)N=C(c2ccccc2)c2ccccc21 [DEVAZEPIDE] please.
-- reply 51

-- ask Quote Population Pyknosed Nuclei (%) reported for CC(/C=C1\SC(=S)N(CCCC(=O)Nc2ccc(C(=O)O)c(O)c2)C1=O)=C\c1ccccc1 please.
-- reply 45

-- ask Quote Population Pyknosed Nuclei (%) reported for CC(C)[C@H](CO)Nc1nc(Nc2cccc(Cl)c2)c2ncn(C(C)C)c2n1 please.
-- reply 49

-- ask Quote Population Pyknosed Nuclei (%) reported for CCCc1cc(C)[nH]c(=O)c1CNC(=O)c1cc(-c2ccc(N3CCN(C(C)C)CC3)nc2)cc2c1cnn2C(C)C please.
-- reply 62

-- ask Quote Population Pyknosed Nuclei (%) reported for Cc1ccc(S(=O)(=O)NC2c3ccccc3Oc3ccccc32)cc1 please.
-- reply 41

-- ask Quote Population Pyknosed Nuclei (%) reported for N#Cc1cccc(C(=O)Nc2cc(-c3ccccc3)nn2-c2ccccc2)c1 please.
-- reply 53

-- ask Quote Population Pyknosed Nuclei (%) reported for CC[C@H](Nc1ncnc2[nH]cnc12)c1nc2cccc(F)c2c(=O)n1-c1ccccc1 please.
-- reply 18

-- ask Quote Population Pyknosed Nuclei (%) reported for CCOc1ccn(-c2ccc(F)cc2)c(=O)c1C(=O)Nc1ccc(Oc2ccnc(N)c2Cl)c(F)c1 please.
-- reply 12

-- ask Quote Population Pyknosed Nuclei (%) reported for CCOC(=O)CCNc1cc(N2CCc3ccccc3CC2)nc(-c2ccccn2)n1 please.
-- reply 8

-- ask Quote Population Pyknosed Nuclei (%) reported for Oc1cccc(-c2nc(N3CCOCC3)c3oc4ncccc4c3n2)c1 please.
-- reply 76

-- ask Quote Population Pyknosed Nuclei (%) reported for Cc1ccc(NC(=O)Nc2cc(C(F)(F)F)ccc2F)cc1Nc1ccc2c(c1)NC(=O)/C2=C\c1ccc[nH]1 please.
-- reply 45

-- ask Quote Population Pyknosed Nuclei (%) reported for C=CC(=O)Nc1cc(-n2c(=O)ccc3cnc4ccc(-c5ccc(NS(C)(=O)=O)cc5)cc4c32)ccc1C please.
-- reply 55

-- ask Quote Population Pyknosed Nuclei (%) reported for C[C@@H](Oc1cc(-n2cnc3ccc(CN4CCN(C)CC4)cc32)sc1C(N)=O)c1ccccc1C(F)(F)F please.
-- reply 62

-- ask Quote Population Pyknosed Nuclei (%) reported for CC(Cc1ccc(O)c(O)c1)C(C)Cc1ccc(O)c(O)c1 (stereo not drawn) [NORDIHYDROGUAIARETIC ACID] please.
-- reply 45
